The measured values listed here are drawn from paper PMC9866460.

assay-protocol: physchem
Format: physicochemical

- compound: "C[C@@H]1C/C=C/C=C/C=C/C=C/[C@H](O[C@@H]2O[C@H](C)[C@@H](O)[C@H](N)[C@@H]2O)C[C@@H]2O[C@](O)(C[C@@H](O)C[C@H]3O[C@@H]3/C=C/C(=O)O1)C[C@H](O)[C@H]2C(=O)O [Natamycin]"
  result-units: "µg/mL"
  solubility at 7 days: 35.3
